Reference source for all entries: patent US20070244048A1

Target: T1, mouse NMUR1-ATG (mouse, UniProt O55040 1-428)
T1 sequence (looked up): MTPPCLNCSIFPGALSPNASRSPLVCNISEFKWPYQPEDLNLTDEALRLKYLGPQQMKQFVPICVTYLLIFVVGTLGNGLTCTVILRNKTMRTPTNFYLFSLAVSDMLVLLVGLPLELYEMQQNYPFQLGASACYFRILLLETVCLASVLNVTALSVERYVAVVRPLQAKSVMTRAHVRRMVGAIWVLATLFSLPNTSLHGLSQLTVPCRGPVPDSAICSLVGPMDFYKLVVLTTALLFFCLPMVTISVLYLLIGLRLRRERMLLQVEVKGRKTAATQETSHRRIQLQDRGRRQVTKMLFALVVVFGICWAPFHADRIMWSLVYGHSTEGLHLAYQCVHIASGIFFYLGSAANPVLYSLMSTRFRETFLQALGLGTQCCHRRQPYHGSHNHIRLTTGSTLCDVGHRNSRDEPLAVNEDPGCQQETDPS
Assay: cell-based or functional assay
Starred links: 1 amine or outer side, 2 acyl side, 3 side chain; linkers in the order of their positions; H or OH if unused. Non-standard residues stand in square brackets, D forms with d. No end group written: not given here. *: point of attachment. Ttds = 1-amino-4,7,10-trioxa-13-tridecanamine succinimic acid spacer, O=C(CCC(=O)[*:2])NCCCOCCOCCOCCCN[*:1]; (PEG)2 40 kDa = branched PEG of 40 kDa linked via the Cys side-chain thiol (code C2 = Cys(PEG)2 40 kDa); Cholesteroyl = cholesterol linked to a cysteine residue via the side-chain thiol; Succinimide(1-Et,3-yl) = CCN1C(=O)CC(*)C1=O
property.measured: EC50 (FLIPR) (nM)

Ac-C(PEG 20 kDa)C(PEG 20 kDa)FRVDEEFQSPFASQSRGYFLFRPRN-NH2 [NMU23]    14
Ac-C(Succinimide(1-Et,3-yl))ASQSRGYFLFRPRN-NH2 (SMILES CCN1C(=O)CC(SC[C@H](NC(C)=O)C(=O)N[C@@H](C)C(=O)N[C@@H](CO)C(=O)N[C@@H](CCC(N)=O)C(=O)N[C@@H](CO)C(=O)N[C@@H](CCCNC(=N)N)C(=O)NCC(=O)N[C@@H](Cc2ccc(O)cc2)C(=O)N[C@@H](Cc2ccccc2)C(=O)N[C@@H](CC(C)C)C(=O)N[C@@H](Cc2ccccc2)C(=O)N[C@@H](CCCNC(=N)N)C(=O)N2CCC[C@H]2C(=O)N[C@@H](CCCNC(=N)N)C(=O)N[C@@H](CC(N)=O)C(N)=O)C1=O) [NMU17]    1.2
FRVDEEFQSPFASQSRPYFLFRPRN-NH2 [NMU4]    3.6
Ac-C((PEG)2 40 kDa)FQSPFASQSRGYFLFRPRN-NH2 [NMU20]    12.7
Ac-C(PEG 20 kDa)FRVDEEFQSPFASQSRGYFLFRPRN-NH2 [NMU21]    9.1
Ac-C((PEG)2 40 kDa)[Ttds]FLFRPRN-NH2 [NMU16]    24.1
Ac-C(Cholesteroyl)GYFLFRPRN-NH2 [NMU11]    1000
Ac-C((PEG)2 40 kDa)ASQSRGYFLFRPRN-NH2 [NMU18]    15.2
Ac-C((PEG)2 40 kDa)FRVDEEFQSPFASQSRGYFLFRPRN-NH2 [NMU12]    72
